Attribution: patent US20180179198A1

IC50 listing for selected molecules.
target.entity: TNFα trimer (Homo sapiens, UniProt P01375)
Sequence (P01375 77-233 limits assumed): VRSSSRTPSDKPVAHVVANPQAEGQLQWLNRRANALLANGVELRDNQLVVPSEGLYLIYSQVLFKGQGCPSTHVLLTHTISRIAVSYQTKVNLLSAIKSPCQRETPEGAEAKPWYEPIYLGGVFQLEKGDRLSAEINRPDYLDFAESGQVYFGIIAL
experiment.summary: TNFα FP Competitive Binding Assay
experimental.conditions: fluorescence polarization competition; 20 nM TNFα trimer, 1 nM OregonGreen488 probe; read-out: TNF IC50 (TNFα FP binding assay IC50)

>  <molecule>
O=c1cc(-c2ccc3nc4n(c3n2)[C@@H](c2ccccc2)CC4)ccn1CC1CCC(F)(F)CC1

>  <target.entity>
TNFα trimer (Homo sapiens, UniProt P01375)

>  <IC50>
1000 to 10000 nM

$$$$
>  <molecule>
CC1(O)CCN(c2ncc(-c3ccc4nc5n(c4c3)[C@@H](c3ccccc3)COC5)cn2)CC1

>  <target.entity>
TNFα trimer (Homo sapiens, UniProt P01375)

>  <IC50>
< 1000 nM

$$$$
>  <molecule>
CS(=O)(=O)NC1CCN(c2ncc(-c3ccc4nc5n(c4c3)[C@@H](c3ccccc3)COC5)cn2)CC1

>  <target.entity>
TNFα trimer (Homo sapiens, UniProt P01375)

>  <IC50>
1000 to 10000 nM

$$$$
>  <molecule>
CC(C)(O)c1ncc(-c2cc3c(cn2)nc2n3C(c3ccccc3)CC2)cn1 (centres unmarked)

>  <target.entity>
TNFα trimer (Homo sapiens, UniProt P01375)

>  <IC50>
1000 to 10000 nM

$$$$
>  <molecule>
COc1ccccc1C1CCCc2nc3ccc(-c4cnc(C(C)(C)O)nc4)cn3c21 (centres unmarked)

>  <target.entity>
TNFα trimer (Homo sapiens, UniProt P01375)

>  <IC50>
< 1000 nM

$$$$
>  <molecule>
O=C1NC[C@H]2CN(c3ncc(-c4ccc5nc6n(c5c4)[C@@H](c4ccccc4)CC6)cn3)CCN12

>  <target.entity>
TNFα trimer (Homo sapiens, UniProt P01375)

>  <IC50>
< 1000 nM

$$$$
>  <molecule>
O=C1CN(c2ncc(-c3ccc4nc5n(c4c3)[C@@H](c3ccccc3)COC5)cn2)CCCN1

>  <target.entity>
TNFα trimer (Homo sapiens, UniProt P01375)

>  <IC50>
1000 to 10000 nM

$$$$
>  <molecule>
NS(=O)(=O)N1CCN(c2ncc(-c3ccc4nc5n(c4c3)[C@@H](c3ccccc3)COC5)cn2)CC1

>  <target.entity>
TNFα trimer (Homo sapiens, UniProt P01375)

>  <IC50>
< 1000 nM

$$$$
